- targetEntity: Cytochrome P450 2C19 (Homo sapiens, UniProt P33261)
- Sequence (P33261 whole entry): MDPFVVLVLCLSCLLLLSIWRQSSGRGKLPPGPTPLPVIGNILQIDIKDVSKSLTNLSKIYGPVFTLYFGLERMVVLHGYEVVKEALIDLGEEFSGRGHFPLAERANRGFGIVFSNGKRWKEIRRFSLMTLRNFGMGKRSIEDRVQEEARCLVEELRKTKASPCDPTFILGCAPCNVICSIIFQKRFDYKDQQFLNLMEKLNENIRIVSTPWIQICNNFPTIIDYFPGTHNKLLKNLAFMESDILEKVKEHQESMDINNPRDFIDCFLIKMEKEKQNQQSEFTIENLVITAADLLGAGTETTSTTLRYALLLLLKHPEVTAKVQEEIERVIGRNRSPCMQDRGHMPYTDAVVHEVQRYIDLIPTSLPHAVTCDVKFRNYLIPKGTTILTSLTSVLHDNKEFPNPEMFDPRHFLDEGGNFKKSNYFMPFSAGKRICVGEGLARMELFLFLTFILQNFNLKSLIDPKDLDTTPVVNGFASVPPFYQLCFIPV
observationType: IC50 (µM)
The answer is to be given in µM; state only the numeric part.

Please look up its IC50: "CC(C)Nc1cc2c(cc1NS(=O)(=O)c1ccc(-c3ccc(Cl)cc3)cc1)CCN(C)CC2"
25

---

Overview of recorded pKi for various molecules
- targetEntity: UniProt P28223
- Sequence (P28223 whole entry): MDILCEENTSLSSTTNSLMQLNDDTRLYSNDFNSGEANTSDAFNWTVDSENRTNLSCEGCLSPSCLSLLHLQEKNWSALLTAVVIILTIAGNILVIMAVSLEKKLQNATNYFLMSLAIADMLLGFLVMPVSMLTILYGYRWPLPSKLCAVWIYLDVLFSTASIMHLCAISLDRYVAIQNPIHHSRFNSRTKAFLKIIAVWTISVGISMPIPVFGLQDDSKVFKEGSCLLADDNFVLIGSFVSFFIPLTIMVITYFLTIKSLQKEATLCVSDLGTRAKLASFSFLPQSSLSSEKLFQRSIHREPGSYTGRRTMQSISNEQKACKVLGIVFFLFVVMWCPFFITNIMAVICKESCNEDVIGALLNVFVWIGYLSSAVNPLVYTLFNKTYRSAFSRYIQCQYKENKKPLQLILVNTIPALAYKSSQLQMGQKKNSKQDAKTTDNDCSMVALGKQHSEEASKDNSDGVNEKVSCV
- assayName: Displacement of radioligand from human recombinant 5HT2A receptor
Please treat pKi as minus the base-10 logarithm of the molar concentration.

INSERT INTO results (chemsmiles, valuereported) VALUES
  ('CC(C)Nc1cc2c(cc1NS(=O)(=O)c1ccc(-c3ccc(Cl)cc3)cc1)CCN(C)CC2', 8.80);

Write down the reported pKi of "COc1cc2c(cc1NS(=O)(=O)c1ccc(-c3ccc(Cl)cc3)cc1)CCN(C)CC2" , test system: UniProt P28223.
7.60

Any idea what pKi came out for "CC(C)c1cc2c(cc1NS(=O)(=O)c1ccc(-c3ccc(Cl)cc3)cc1)CCN(C)CC2" on UniProt P28223?
8.30

Tell me reported pKi for "Cc1cc(S(=O)(=O)Nc2ccc3c(c2)CCN(C)CC3)ccc1-c1ccc(Cl)cc1" , tested with UniProt P28223.
6.90

Form: Entry = "CC(C)Oc1cc2c(cc1NS(=O)(=O)c1ccc(-c3ccc(Cl)cc3)cc1)CCN(C)CC2" | System = UniProt P28223 | pKi = ____
7.80

Which pKi is reported with UniProt P28223 for this entry: "CCCCc1ccc(S(=O)(=O)Nc2ccc3c(c2)CCNCC3)cc1" ?
7.80

Form field: pKi recorded for "Cc1noc(C)c1-c1ccc(S(=O)(=O)Nc2ccc3c(c2)CCN(C)CC3)cc1" with UniProt P28223 (enter value)
5.90

Give UniProt P28223 pKi for "CCCCc1ccc(S(=O)(=O)Nc2ccc3c(c2)CN(C)C3)cc1"
8.30

Entry "Cc1cc2c(cc1NS(=O)(=O)c1ccc(-c3ccc(Cl)cc3)cc1)CCN(C)CC2" , system UniProt P28223: what pKi was measured?
7.70

What reported pKi corresponds to "CN1CCc2ccc(NS(=O)(=O)c3ccc(-c4ccc(F)c(Cl)c4)cc3)cc2CC1" on UniProt P28223?
7.30

---

- targetEntity: UniProt:P10635
- Sequence (P10635 whole entry): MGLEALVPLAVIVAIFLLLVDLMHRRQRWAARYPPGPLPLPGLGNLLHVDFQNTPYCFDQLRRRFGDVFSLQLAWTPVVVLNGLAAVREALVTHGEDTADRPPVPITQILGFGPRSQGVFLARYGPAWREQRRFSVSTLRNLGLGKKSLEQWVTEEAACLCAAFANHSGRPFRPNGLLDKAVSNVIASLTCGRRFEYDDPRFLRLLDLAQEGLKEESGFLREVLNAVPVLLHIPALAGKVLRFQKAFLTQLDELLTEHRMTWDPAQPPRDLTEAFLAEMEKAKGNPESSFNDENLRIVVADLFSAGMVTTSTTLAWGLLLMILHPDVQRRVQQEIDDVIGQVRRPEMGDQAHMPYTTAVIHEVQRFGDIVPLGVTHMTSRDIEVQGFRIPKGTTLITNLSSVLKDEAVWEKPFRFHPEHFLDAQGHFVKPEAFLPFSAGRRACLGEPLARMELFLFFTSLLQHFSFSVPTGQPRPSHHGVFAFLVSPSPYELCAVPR
observationType: pIC50
// returns pIC50 (minus log10 of molar concentration), number only

Param readout= pIC50; system= UniProt:P10635; entry= "CCCCc1ccc(S(=O)(=O)Nc2ccc3c(c2)CCN(C)CC3)cc1" ; returns value.
5.80

---

- targetEntity: D(3) dopamine receptor (Homo sapiens)
- assayName: Agonist activity at human dopamine D3 receptor by [35S]GTP-gamma-S binding assay
pEC50: −log10 of the molar value.
observationType: pEC50

Which pEC50 is listed for "CC(C)Nc1cc2c(cc1NS(=O)(=O)c1ccc(-c3ccc(Cl)cc3)cc1)CCN(C)CC2" ?
< 5.00

---

- targetEntity: D(3) dopamine receptor (Homo sapiens, UniProt P35462)
- Sequence (P35462 whole entry): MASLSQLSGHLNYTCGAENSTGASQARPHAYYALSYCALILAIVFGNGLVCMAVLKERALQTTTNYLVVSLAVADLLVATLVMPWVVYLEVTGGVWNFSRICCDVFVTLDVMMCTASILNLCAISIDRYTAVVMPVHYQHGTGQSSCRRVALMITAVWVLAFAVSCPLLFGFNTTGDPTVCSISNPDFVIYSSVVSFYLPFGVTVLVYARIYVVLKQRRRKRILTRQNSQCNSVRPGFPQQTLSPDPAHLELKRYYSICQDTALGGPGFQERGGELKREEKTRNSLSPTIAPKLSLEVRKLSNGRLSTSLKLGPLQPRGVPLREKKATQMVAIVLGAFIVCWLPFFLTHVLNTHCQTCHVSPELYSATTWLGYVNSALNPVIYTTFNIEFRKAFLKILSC
- assayName: Displacement of [125I]iodosulpiride from human recombinant dopamine D3 receptor expressed in CHO cells
observationType: pKi
The read-out pKi is expressed as -log10 of concentration in moles per litre.

INSERT INTO results (chemsmiles, observationtype, valuereported) VALUES
  ('CCCCc1ccc(S(=O)(=O)Nc2ccc3c(c2)CN(C)C3)cc1', 'pKi', 7.70);

Which pKi value belongs to "CCCCc1ccc(S(=O)(=O)Nc2ccc3c(c2)CN(C)CC3)cc1" ?
7.60

Using the record for "CN1CCc2ccc(NS(=O)(=O)c3ccc(-c4ccc(F)c(Cl)c4)cc3)cc2CC1" , report its pKi.
8.40

Tell me the measured pKi of "Cc1cc(S(=O)(=O)Nc2ccc3c(c2)CCN(C)CC3)ccc1-c1ccc(Cl)cc1" , please.
8.20

Request the reported pKi associated with "CC(C)c1cc2c(cc1NS(=O)(=O)c1ccc(-c3ccc(Cl)cc3)cc1)CCN(C)CC2"
8.40

Given the entry "Cc1ccc(-c2ccc(S(=O)(=O)Nc3ccc4c(c3)CCN(C)CC4)cc2)s1" , report its measured pKi.
7.60

Param item = "Cc1noc(C)c1-c1ccc(S(=O)(=O)Nc2ccc3c(c2)CCN(C)CC3)cc1" ; retrieve measured pKi.
7.80

Data request, read-out pKi, for "CN1CCc2ccc(NS(=O)(=O)c3ccc(-c4ccc(Cl)cc4)cc3)cc2CC1"
7.80

Given the entry "COc1cc2c(cc1NS(=O)(=O)c1ccc(-c3ccc(Cl)cc3)cc1)CCN(C)CC2" , report its measured pKi.
9.10

Name the recorded pKi for "Cc1cc2c(cc1NS(=O)(=O)c1ccc(-c3ccc(Cl)cc3)cc1)CCN(C)CC2" .
8.80

Quick check: pKi of "CCCCc1ccc(S(=O)(=O)Nc2ccc3c(c2)CNC3)cc1" ?
7.40

Which pKi value belongs to "CN1CCc2ccc(NS(=O)(=O)c3ccc(-c4ccc(C#N)cc4)cc3)cc2CC1" ?
7.80

Recorded pKi for "CC(C)Nc1cc2c(cc1NS(=O)(=O)c1ccc(-c3ccc(Cl)cc3)cc1)CCN(C)CC2" , please?
8.50

Any idea what its pKi is? The molecule is "CCCCc1ccc(S(=O)(=O)Nc2ccc3c(c2)CCNCC3)cc1"
7.80
